Catalogue of PBM binding z-score readings, one per entry.
test system: PPARg:RXRa IVT, anti-PPARg (NR concentration 270 nM, RXRa partner concentration 90 nM); test: PBM binding z-score (relative to random genomic background probes); higher = stronger binding; sequences stand for … in GC…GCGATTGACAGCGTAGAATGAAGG
Give the value as a plain number.

[
  {
    "Input sequence": "ATATGTTGGTTAGGGTCATTCAGAAAGTAGGGAA",
    "Observed measurement": 2.45
  }
]

Req: What value of PBM binding z-score has been recorded for this entry: CCTAGTTGGTCAAGGTCTCACACGCTATAGGTAC
Resp: 1.75

Req: // query PBM binding z-score value for entry CCGAGTAGGTTATGAGGGGGCATTCAGTGCGAAT
Resp: 4.11

Req: // PBM binding z-score lookup, key: TCATATAGGTAATAGGTGAAAGTCGGTGTGGTAA
Resp: 4.33

Req: Endpoint output: PBM binding z-score of CGAACTAGGTCAAAAGACAGTGAAAGGCGACGTA . Value?
Resp: 7.79

Req: Given the entry CGTCCAAGGTAAATGCTAGGTCAGTGAAAGCATT , report its measured PBM binding z-score.
Resp: 0.881

Source listed as the supplement of paper PMC6555819.
